experiment: Slurry screening, solubility determined by HPLC; type: physicochemical; details: organic solvent or mixture, thermodynamic from solid; slurry stirred 5 days; solvent DCM

{"SMILES_ENTRY": "CCCN(CCC)C(=O)C1=Cc2ccc(-c3ccc(C(=O)N4CCCC4)cc3)cc2N=C(N)C1", "solubility at 5 days": "> 70 mg/mL"}

---

assay: Solubility of Form A at 20° C. and 40° C.; format: physicochemical; conditions: organic solvent or mixture, thermodynamic from solid; DMSO/EtOAc 1:1 v/v, 40° C., stirred 2 days
MEASURED_METRIC: solubility at 2 days (mg/mL)

{"COMPOUND": "CCCN(CCC)C(=O)C1=Cc2ccc(-c3ccc(C(=O)N4CCCC4)cc3)cc2N=C(N)C1 [Form A]", "RECORDED_MEASUREMENT": 36.9}
